Catalogue of compounds with associated TGI
# System: SNB-75 CNS
# measurement.description: NCI tumour cell line growth inhibition, 48 h
Note: unit µM is implicit; provide only the numeric part.

(Q) Notebook entry, SNB-75 CNS assay: TGI of Nc1cc(C(F)(F)F)c(-c2nc(N3CCOCC3)nc(N3CCOCC3)n2)cn1 = ?
(A) 2.19

(Q) Notebook entry, SNB-75 CNS assay: TGI of N#C[Se]CCN1C(=O)c2ccccc2C1=O = ?
(A) 5.56

(Q) Notebook entry, SNB-75 CNS assay: TGI of Cc1ccc(-c2nc([P+](c3ccccc3)(c3ccccc3)c3ccccc3)c(N3CCOCC3)o2)cc1 = ?
(A) 1.11

(Q) Notebook entry, SNB-75 CNS assay: TGI of COc1ccc(NC(=S)c2ccc([N+](=O)[O-])o2)cc1 = ?
(A) 14.9

----------
# System: MDA-MB-435
# measurement.description: NCI tumour cell line growth inhibition, 48 h
outcome.measure: TGI

For orientation, consider the following solved cases.
COc1ccc(/C=C2\C[C@H]3[C@@H]4CC=C5C[C@@H](O)CC[C@]5(C)[C@H]4CC[C@]3(C)\C2=N\O)cc1: > 100 µM
O=C(Nc1ccc(Cl)cc1Cl)C1C(=O)OC2(CCCCC2)OC1=O: 56 µM
CS(=O)(=O)CCC1CCC(=O)O1 (stereo not given): > 100 µM
COc1ccc(-c2c(Nc3ccccn3)nc3c(C4=CCCCC4)c(-c4ccccc4)[nH]n3c2=O)cc1: > 100 µM
CCc1nc(N)nc(N)c1-c1ccc(N2CCOCC2)c(N=[N+]=[N-])c1: > 100 µM

Kindly consider the entry below.
(Q) Quick one: TGI of O=C1CSC(c2cc3cc(Br)ccc3nc2Cl)N1c1ccc(Cl)cc1 (stereo not given) ?
(A) 49.5 µM

----------
# Tested on: EKVX NSCLC
# measurement.description: NCI tumour cell line growth inhibition, 48 h; in the data active = GI50 below about 0.43 µM; inactive = the rest
Outcomes you can answer with include only these: active, inactive

(Q) Given CCOC(=O)C#Cc1c(C(=O)OCC)nnn1[C@@H]1O[C@H](COC)[C@@H](OC)[C@H]1OC , state the outcome it received in this test.
(A) inactive

----------
Catalogue of compounds with associated TGI
# System: HT29 colon
# measurement.description: NCI tumour cell line growth inhibition, 48 h

For orientation, consider the following solved cases.
O/N=C1/C(=C/c2ccc(OCc3ccccc3)cc2)CCCC1C(NO)c1ccc(OCc2ccccc2)cc1 (stereo not drawn): > 100 µM
OCc1ccc(N2CCc3ccc(F)cc3C2)cc1Cl: 6.61 µM
CNCc1cccc2c1OCCOCCOCCNS(=O)(=O)c1ccc(cc1)-c1cnc(N)c(n1)C(=O)N2: 3.76 µM
CC(C)(C)n1c(=O)n2c(-c3ccccc3)c(-c3ccccc3)n2c1=O: > 100 µM
O=C1NC(=NCc2cccs2)O/C1=C\c1ccc2ncccc2c1: 21.2 µM

(Q) Quick one: TGI of C=CCN(c1cc(O)c2c(c(C)cn2S(=O)(=O)c2ccccc2)c1[N+](=O)[O-])S(C)(=O)=O ?
(A) > 100 µM

(Q) Quick one: TGI of O=C(OC1OC2COC(=O)c3cc(O)c(O)c(O)c3-c3c(cc(O)c(O)c3O)C(=O)OC3C2OC(=O)[C@@]24CC(=O)[C@@](O)(OC25C(=O)O[C@H]2[C@@H](O)CO[C@@]25O)C2(O)Oc5c(O)c(O)cc(c5C24)C(=O)OC13)c1cc(O)c(O)c(O)c1 (stereo partly drawn) ?
(A) > 100 µM

(Q) Quick one: TGI of COc1cc(/C=C/C(=O)c2nc3cc(F)ccc3nc2C)cc(OC)c1OC ?
(A) > 100 µM
